# key: entry, value: MRT inf
Experiment: Pharmacokinetic study in rats after oral administration of cinobufacini capsule (UPLC-MS/MS of plasma)
Type: in vivo, rat
Settings: male, Sprague-Dawley, in vivo; rat plasma, oral cinobufacini capsule 0.9 g/kg (low), mean ± SD, n = 6; read-out: MRT0-∞
# output: bare number, implied unit h

Query: What value of MRT inf has been reported for the following compound? `C[C@]12CC[C@H](O)C[C@H]1CC[C@@H]1[C@@H]2[C@H](O)C[C@]2(C)[C@@H](c3ccc(=O)oc3)CC[C@]12O`
Reply: 0.64

Query: What value of MRT inf has been recorded for this entry: `C[C@]12CC[C@H](O)C[C@H]1CC[C@@H]1[C@@H]2CC[C@]2(C)[C@@H](c3ccc(=O)oc3)CC[C@]12O`
Reply: 2.19

Query: Suppose we examine the compound `C[C@]12CC[C@H](O)C[C@H]1CC[C@@H]1[C@@H]2C(=O)[C@@H](O)[C@]2(C)[C@@H](c3ccc(=O)oc3)CC[C@]12O` ; what MRT inf value has been reported?
Reply: 2.76
